# maps each entry to its Fibrin % cell toxicity
# Tested on: primary rat microglia
# assaySummary: Cell toxicity (dead cells, size <150 μm2) in coated fibrin (cFib) assay;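 note: share of dead cells sized under 150 µm2 at 10 µM in fibrin-stimulated microglia HTS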
# conditionDescription: primary microglia HTS, 10 μM, fibrin assay, cell size <150 μm^2 as marker of toxicity
State just the number; it will be interpreted in %.

Challenge: # return recorded Fibrin % cell toxicity for entry O=C1/C(=C/c2cccs2)CCC/C1=C\c1cccs1 [Tenylidone]
Response given: 1

Challenge: # return recorded Fibrin % cell toxicity for entry COc1ccc2[nH]c([S+]([O-])Cc3ncc(C)c(OC)c3C)nc2n1 (stereo not drawn) [Tenatoprazole]
Response given: 1

Challenge: # return recorded Fibrin % cell toxicity for entry CCCCNc1ccc(C(=O)OCCN(C)C)cc1 [Tetracaine]
Response given: 1

Challenge: # return recorded Fibrin % cell toxicity for entry C[C@H](CCC(=O)O)[C@H]1CC[C@H]2[C@@H]3[C@@H](O)C[C@@H]4C[C@H](O)CC[C@]4(C)[C@H]3CC[C@]12C [Ursodeoxycholic Acid]
Response given: 1

====

# System: LPS-induced microglia activation
# assaySummary: Image-based assay of LPS-induced microglia activation (HTS and dose response)
# Assay type: cell-based, rat
# conditionDescription: Rattus norvegicus, Microglia, dose response, LPS-induced microglia activation; read-out: LPS IC50
pIC50: −log10 of the molar value.
# maps each entry to its pIC50

CC(=O)OCC(=O)[C@@]12N=C(C)O[C@@H]1C[C@H]1[C@@H]3CCC4=CC(=O)C=C[C@]4(C)[C@H]3[C@@H](O)C[C@@]12C [Deflazacort, reference compound]    7.40
C#C[C@]1(O)CC[C@H]2[C@@H]3CCc4cc(O)ccc4[C@H]3CC[C@@]21C [Ethinyl estradiol, reference compound]    < 4.70

Challenge: # return recorded pIC50 for entry C[C@]12C=CC(=O)C=C1CC[C@@H]1[C@@H]2C(=O)C[C@@]2(C)[C@H]1CC[C@]2(O)C(=O)CO [Prednisone, reference compound]
Response given: < 4.70

Challenge: # return recorded pIC50 for entry O=P(O)(O)C(O)(Cc1cccnc1)P(=O)(O)O [Risedronate sodium, reference compound]
Response given: < 4.70

====

# System: fibrin-induced microglia activation
# assaySummary: Image-based assay of fibrin-induced microglia activation (HTS and dose response)
# Format: cell-based, rat
# conditionDescription: Rattus norvegicus, Microglia, primary microglia HTS, fibrin stimulation, compounds at 10 μM; read-out: Fibrin % inhibition
endpoint: inhibition at 10 µM
Express the reported value numerically, then name its unit.

CCN(CC)C(=O)N1CCN(C)CC1    -26%

Challenge: Please respond with reported inhibition at 10 µM (system fibrin-induced microglia activation) for C[C@]12CC[C@H]3C(=CCc4cc(O)ccc43)[C@@H]1CCC2=O .
Response given: 1%

Challenge: Please respond with reported inhibition at 10 µM (system fibrin-induced microglia activation) for C[N+](C)(C)CCCCCCCCCC[N+](C)(C)C .
Response given: 1%

Challenge: Please respond with reported inhibition at 10 µM (system fibrin-induced microglia activation) for CCN1CCN(C(=O)N[C@@H](C(=O)N[C@@H]2C(=O)N3[C@@H]2SC(C)(C)[C@@H]3C(=O)O)c2ccccc2)C(=O)C1=O .
Response given: 103%

Challenge: Please respond with reported inhibition at 10 µM (system fibrin-induced microglia activation) for Cl.N=C(N)NCCC[C@H](N)C(=O)O [Arginine Hydrochloride] .
Response given: 9%
